System: KBv200
Experiment: Growth inhibiting effect of PA on drug resistant cells (MTT)
Format: cell-based
Conditions: Homo sapiens; KBv200, PA alone; read-out: IC50 growth inhibition
READOUT_KIND: IC50 (µg/mL)
The reply should contain only the number, in µg/mL.

CCC/C=C1\OC(=O)C2=C1CCC=C2 :: 32.5
CCCCC1OC(=O)C2=C1CCC=C2 (single isomer, unassigned) :: 38.7
CCC/C=C1\OC(=O)C2=C1CC[C@H]1C3C=C4C(=O)O/C(=C\CCC)[C@@]4(CC3)C21 (some centres unmarked) :: 35.2
CCC/C=C1\OC(=O)C2=C1CCC(O)C2O (single isomer, unassigned) :: 29.8
CCC/C=C1\OC(=O)C2=CC3CC[C@]21C1C2=C(CC[C@@H]31)C(CCCC)OC2=O (some centres unmarked) :: 38.6

Problem: For the record CCC/C=C1\OC(=O)C2=C1CCC1C(CCC)C3(OC(=O)C4=C3CCC=C4)C21 (centres unmarked) , what value of IC50 is listed for KBv200?
Solution: 36.9

Problem: Find the measured IC50: item CCCCC1OC(=O)c2cccc(O)c21 (centres unmarked) , target or system KBv200.
Solution: 26.4

Problem: What value of IC50 on KBv200 does CCC/C=C1\OC(=O)C2=C1CCC1OC21 (single isomer, unassigned) have?
Solution: 27.4

====

# RF (Ctrl/S), Taxol annotations
Test system: K562/Adr cells
Assay: Sensitizing effect of PA to conventional chemotherapeutic drugs (MTT)
Format: cell-based, human
Conditions: IC50 without sensitizer / with sensitizer 10 μg/mL
Output spec: single numeric token, no unit.

Sample records with RF (Ctrl/S), Taxol:
CCC/C=C1\OC(=O)C2=C1CC[C@H]1C3C=C4C(=O)O/C(=C\CCC)[C@@]4(CC3)C21 (some centres unmarked) [S6] :: 1.641
CCC/C=C1\OC(=O)C2=C1CCC(O)C2O (single isomer, unassigned) [S5] :: 2.117
CCC/C=C1\OC(=O)C2=CC3CC[C@]21C1C2=C(CC[C@@H]31)C(CCCC)OC2=O (some centres unmarked) [S8] :: 3.506
CCC/C=C1\OC(=O)C2=C1CCC1OC21 (single isomer, unassigned) [S3] :: 5.740

Problem: Recorded RF (Ctrl/S), Taxol for CCCCC1OC(=O)c2cccc(O)c21 (centres unmarked) [S2] , please?
Solution: 10.57

Problem: Report RF (Ctrl/S), Taxol for CCCCC1OC(=O)C2=C1CCC=C2 (single isomer, unassigned) [S1] please.
Solution: 24.04

Problem: Which value of RF (Ctrl/S), Taxol has been reported for CCC/C=C1\OC(=O)C2=C1CCC=C2 [S4] in the records?
Solution: 2.412

Problem: What measured RF (Ctrl/S), Taxol goes with CCC/C=C1\OC(=O)C2=C1CCC1C(CCC)C3(OC(=O)C4=C3CCC=C4)C21 (centres unmarked) [S7] ?
Solution: 1.550

====

Tested on: MCF-7/Adr cells
Test: Sensitizing effect of PA to conventional chemotherapeutic drugs (MTT)
Type: cell-based, human
Conditions: IC50 without sensitizer / with sensitizer 10 μg/mL
READOUT_KIND: RF (Ctrl/S), Taxol
Reply: number alone, nothing else.

Use these answered entries as a reference point.
CCC/C=C1\OC(=O)C2=C1CC[C@H]1C3C=C4C(=O)O/C(=C\CCC)[C@@]4(CC3)C21 (some centres unmarked) [S6] :: 3.932
CCCCC1OC(=O)c2cccc(O)c21 (centres unmarked) [S2] :: 10.19
CCC/C=C1\OC(=O)C2=C1CCC=C2 [S4] :: 4.279
CCCCC1OC(=O)C2=C1CCC=C2 (single isomer, unassigned) [S1] :: 2.685
CCC/C=C1\OC(=O)C2=C1CCC1C(CCC)C3(OC(=O)C4=C3CCC=C4)C21 (centres unmarked) [S7] :: 7.023

Problem: Form field: reported RF (Ctrl/S), Taxol of CCC/C=C1\OC(=O)C2=CC3CC[C@]21C1C2=C(CC[C@@H]31)C(CCCC)OC2=O (some centres unmarked) [S8]
Solution: 1.612

Problem: Sample CCC/C=C1\OC(=O)C2=C1CCC(O)C2O (single isomer, unassigned) [S5] — what was its RF (Ctrl/S), Taxol?
Solution: 15.62

Problem: Can you share its RF (Ctrl/S), Taxol? I mean this compound: CCC/C=C1\OC(=O)C2=C1CCC1OC21 (single isomer, unassigned) [S3]
Solution: 3.232

====

System: MCF-7/Adr cells
Experiment: Sensitizing effect of PA to conventional chemotherapeutic drugs (MTT)
Assay type: cell-based, human
Conditions: IC50 without sensitizer / with sensitizer 10 μg/mL
READOUT_KIND: RF (Ctrl/S), Vin

Solved cases (2 shown):
CCC/C=C1\OC(=O)C2=C1CCC1OC21 (single isomer, unassigned) [S3] :: 4.008
CCCCC1OC(=O)C2=C1CCC=C2 (single isomer, unassigned) [S1] :: 11.12

Problem: Data request, read-out RF (Ctrl/S), Vin, for CCC/C=C1\OC(=O)C2=C1CCC=C2 [S4]
Solution: 26.01

====

Tested on: K562/Adr cells
Assay: Sensitizing effect of PA to conventional chemotherapeutic drugs (MTT)
Type: cell-based, human
Conditions: IC50 without sensitizer / with sensitizer 10 μg/mL
Catalogue of RF (Ctrl/S), Vin values
// print number alone

CCC/C=C1\OC(=O)C2=C1CCC1C(CCC)C3(OC(=O)C4=C3CCC=C4)C21 (centres unmarked) :: 3.963
CCC/C=C1\OC(=O)C2=CC3CC[C@]21C1C2=C(CC[C@@H]31)C(CCCC)OC2=O (some centres unmarked) :: 7.918
CCCCC1OC(=O)c2cccc(O)c21 (centres unmarked) :: 1.757
CCC/C=C1\OC(=O)C2=C1CC[C@H]1C3C=C4C(=O)O/C(=C\CCC)[C@@]4(CC3)C21 (some centres unmarked) :: 1.833
CCC/C=C1\OC(=O)C2=C1CCC1OC21 (single isomer, unassigned) :: 4.899
CCC/C=C1\OC(=O)C2=C1CCC=C2 :: 6.432
CCC/C=C1\OC(=O)C2=C1CCC(O)C2O (single isomer, unassigned) :: 3.109

Please examine the following record next.
Problem: For the compound CCCCC1OC(=O)C2=C1CCC=C2 (single isomer, unassigned) , what RF (Ctrl/S), Vin is on record?
Solution: 6.214

====

Tested on: MCF-7/Adr
Test: MTT drug resistance determination to conventional chemotherapeutic drugs
Format: cell-based, human
Details: IC50 MCF-7/Adr / IC50 MCF-7
READOUT_KIND: RF (drug resistant factor)

Example compounds with recorded RF (drug resistant factor):
CC[C@]1(O)C[C@H]2CN(CCc3c([nH]c4ccccc34)[C@@](C(=O)OC)(c3cc4c(cc3OC)N(C=O)[C@H]3[C@@](O)(C(=O)OC)[C@H](OC(C)=O)[C@]5(CC)C=CCN6CC[C@]43[C@@H]65)C2)C1 :: 193.75
COc1cccc2c1C(=O)c1c(O)c3c(c(O)c1C2=O)C[C@@](O)(C(=O)CO)C[C@@H]3O[C@H]1C[C@H](N)[C@H](O)[C@H](C)O1 :: 59.07
CC(=O)O[C@H]1C(=O)[C@@]2(C)[C@H]([C@H](OC(=O)c3ccccc3)[C@]3(O)C[C@H](OC(=O)[C@H](O)[C@@H](NC(=O)c4ccccc4)c4ccccc4)C(C)=C1C3(C)C)[C@]1(OC(C)=O)CO[C@@H]1C[C@@H]2O :: 17.65

Lab note: next compound to report on.
Problem: Entry under review: N.N.[Cl][Pt][Cl] [DDP, Cisplatin] . Reported RF (drug resistant factor)?
Solution: 11.38

====

System: KBv200
Assay: MTT drug resistance determination to conventional chemotherapeutic drugs
Format: cell-based, human
Details: IC50 KBv200 / IC50 KB
Parameter RF (drug resistant factor): see the listing below.

Answered examples (3):
N.N.[Cl][Pt][Cl] [DDP, Cisplatin] :: 14.13
CC[C@]1(O)C[C@H]2CN(CCc3c([nH]c4ccccc34)[C@@](C(=O)OC)(c3cc4c(cc3OC)N(C=O)[C@H]3[C@@](O)(C(=O)OC)[C@H](OC(C)=O)[C@]5(CC)C=CCN6CC[C@]43[C@@H]65)C2)C1 :: 139.5
COc1cccc2c1C(=O)c1c(O)c3c(c(O)c1C2=O)C[C@@](O)(C(=O)CO)C[C@@H]3O[C@H]1C[C@H](N)[C@H](O)[C@H](C)O1 :: 33.22

Problem: Which RF (drug resistant factor) value is on record for CC(=O)O[C@H]1C(=O)[C@@]2(C)[C@H]([C@H](OC(=O)c3ccccc3)[C@]3(O)C[C@H](OC(=O)[C@H](O)[C@@H](NC(=O)c4ccccc4)c4ccccc4)C(C)=C1C3(C)C)[C@]1(OC(C)=O)CO[C@@H]1C[C@@H]2O ?
Solution: 42.12
